Target: mGluR5 receptor (Sus scrofa)
Test: Affinity for the mGluR5 receptor: inhibition of 3[H]-MPEP binding in pig brain homogenate
Details: 10 μM compound, 5 nM 3[H]-MPEP, read-out: mGluR5 receptor inhibition of ^3[H]-MPEP binding [10 μM] in % at a concentration of the example compounds of 10 μM
METRIC_NAME: inhibition at 10 µM (%)

CCc1ccn2c(NC(C)(C)C)c(-c3ccc(C#Cc4ccccc4)nc3)nc2c1 [Example 303] :: 67
Fc1ccc(Nc2c(-c3cccc(C#Cc4ccccn4)c3)nc3ccccn23)cc1 [Example 263] :: 85
Cc1c(Br)ccc2nc(-c3cc(C#Cc4ccccc4)cs3)c(NCc3ccc(Cl)cc3)n12 [Example 231] :: 62
CC(C)(C)CC(C)(C)Nc1c(-c2ccc(C#Cc3ccccc3)s2)nc2c(Cl)cc(Cl)cn12 [Example 63] :: 65

====

Molecular target: mGluR5 receptor (Sus scrofa)
Assay: Affinity for the mGluR5 receptor: inhibition of 3[H]-MPEP binding in pig brain homogenate
Settings: 10 μM compound, 5 nM 3[H]-MPEP, read-out: mGluR5 receptor inhibition of ^3[H]-MPEP binding [10 μM] in % at a concentration of the example compounds of 10 μM
METRIC_NAME: inhibition at 10 µM (%)

C(#Cc1csc(-c2nc3cnccn3c2NCCc2cccs2)c1)c1ccccc1 [Example 203] :: 60
CC(C)(C)Nc1c(-c2ccc(C#Cc3ccccn3)o2)nc2ccccn12 [Example 285] :: 88
CC(C)(C)CC(C)(C)Nc1c(-c2cccc(C#Cc3ccccn3)c2)nc2ncccn12 [Example 255] :: 81
COc1cccc(CCNc2c(-c3cc(C#Cc4ccccc4)cs3)nc3cnccn23)c1 [Example 202] :: 70

====

Target: mGluR5 receptor (Sus scrofa)
Assay: Affinity for the mGluR5 receptor: inhibition of 3[H]-MPEP binding in pig brain homogenate
Details: 10 μM compound, 5 nM 3[H]-MPEP, read-out: mGluR5 receptor inhibition of ^3[H]-MPEP binding [10 μM] in % at a concentration of the example compounds of 10 μM
METRIC_NAME: inhibition at 10 µM (%)

COc1cccc(Nc2c(-c3ccc(C#Cc4ccccc4)s3)nc3cc(C)cc(C)n23)c1 :: 93
CC(C)(C)CC(C)(C)Nc1c(-c2ccc(C#Cc3ccccc3)s2)nc2c(OCc3ccccc3)cccn12 :: 38

[A] Cc1cccn2c(NC3CCCCC3)c(-c3ccc(C#Cc4ccccc4)nc3)nc12
[B] C(#Cc1csc(-c2nc3cnccn3c2NCCc2ccccc2)c1)c1ccccc1
When A and B are compared, which has the higher number for inhibition at 10 µM? Let me know the label of the one you choose.
B

====

Target: UniProtKB I3LUI7
Test: Affinity for the mGluR5 receptor: inhibition of 3[H]-MPEP binding in pig brain homogenate
Details: 10 μM compound, 5 nM 3[H]-MPEP, read-out: mGluR5 receptor inhibition of ^3[H]-MPEP binding [10 μM] in % at a concentration of the example compounds of 10 μM
METRIC_NAME: inhibition at 10 µM (%)

Would you please look over these solved cases?
COc1cccc(CNc2c(-c3ccc(C#Cc4ccccc4)s3)nc3cccc(C)n23)c1 [Example 21] :: 91
CC(C)c1ccn2c(NC3CCCCC3)c(-c3ccc(C#Cc4ccccn4)o3)nc2c1 [Example 308] :: 70
Cc1cc(Br)c2nc(-c3cccc(C#Cc4ccccn4)c3)c(NC3CCCC3)n2c1 [Example 211] :: 82
Cc1ccc2nc(-c3ccc(C#Cc4ccccc4)s3)c(NC(C)(C)C)n2c1 [Example 19] :: 78
Clc1ccc2nc(-c3ccc(C#Cc4ccccn4)cc3)c(NC3CCCCC3)n2c1 [Example 315] :: 75
Cc1ccn2c(NCc3ccc(F)cc3)c(-c3ccc(C#Cc4ccccc4)s3)nc2c1 [Example 51] :: 89

[A] COc1ccccc1CNc1c(-c2ccc(C#Cc3ccccc3)s2)nc2cc(C)ccn12 [Example 37]
[B] Nc1c(-c2ccc(C#Cc3ccccc3)s2)nc2cnccn12 [Example 83]
When A and B are compared, which has the higher number for inhibition at 10 µM? Let me know the label of the one you choose.
A
(A: 85%, B: 35%)

====

Molecular target: UniProtKB I3LUI7
Test: Affinity for the mGluR5 receptor: inhibition of 3[H]-MPEP binding in pig brain homogenate
Settings: 10 μM compound, 5 nM 3[H]-MPEP, read-out: mGluR5 receptor inhibition of ^3[H]-MPEP binding [10 μM] in % at a concentration of the example compounds of 10 μM
METRIC_NAME: inhibition at 10 µM (%)

Clc1ccc2nc(-c3cccc(C#Cc4ccccn4)c3)c(NC3CCCCC3)n2c1 [Example 312] :: 64
C(#Cc1ccccn1)c1cccc(-c2nc3cnccn3c2NC2CCCCC2)c1 [Example 238] :: 92
CCCC(C)(C)Nc1c(-c2ccc(C#Cc3ccccc3)s2)nc2c(Br)cc(Br)cn12 [Example 236] :: 66
Cc1cccc2nc(-c3ccc(C#Cc4ccccc4)s3)c(NCC3CCCCC3)n12 [Example 2] :: 95

[1] Cc1cccc(C#Cc2cccc(-c3nc4cnccn4c3NC3CCCC3)c2)n1 [Example 249]
[2] Cc1cc(C)n2c(NCCc3ccccc3)c(-c3ccc(C#Cc4ccccc4)s3)nc2n1 [Example 194]
[3] Clc1ccc(CCNc2c(-c3cc(C#Cc4ccccc4)cs3)nc3cc(-c4ccccc4)ccn23)cc1 [Example 228]
Rank order required: inhibition at 10 µM, descending. Quick reminder: the answer is the labels in the order asked.
1, 3, 2

====

Molecular target: mGluR5 receptor (Sus scrofa, UniProt I3LUI7)
Sequence (I3LUI7 19-1212): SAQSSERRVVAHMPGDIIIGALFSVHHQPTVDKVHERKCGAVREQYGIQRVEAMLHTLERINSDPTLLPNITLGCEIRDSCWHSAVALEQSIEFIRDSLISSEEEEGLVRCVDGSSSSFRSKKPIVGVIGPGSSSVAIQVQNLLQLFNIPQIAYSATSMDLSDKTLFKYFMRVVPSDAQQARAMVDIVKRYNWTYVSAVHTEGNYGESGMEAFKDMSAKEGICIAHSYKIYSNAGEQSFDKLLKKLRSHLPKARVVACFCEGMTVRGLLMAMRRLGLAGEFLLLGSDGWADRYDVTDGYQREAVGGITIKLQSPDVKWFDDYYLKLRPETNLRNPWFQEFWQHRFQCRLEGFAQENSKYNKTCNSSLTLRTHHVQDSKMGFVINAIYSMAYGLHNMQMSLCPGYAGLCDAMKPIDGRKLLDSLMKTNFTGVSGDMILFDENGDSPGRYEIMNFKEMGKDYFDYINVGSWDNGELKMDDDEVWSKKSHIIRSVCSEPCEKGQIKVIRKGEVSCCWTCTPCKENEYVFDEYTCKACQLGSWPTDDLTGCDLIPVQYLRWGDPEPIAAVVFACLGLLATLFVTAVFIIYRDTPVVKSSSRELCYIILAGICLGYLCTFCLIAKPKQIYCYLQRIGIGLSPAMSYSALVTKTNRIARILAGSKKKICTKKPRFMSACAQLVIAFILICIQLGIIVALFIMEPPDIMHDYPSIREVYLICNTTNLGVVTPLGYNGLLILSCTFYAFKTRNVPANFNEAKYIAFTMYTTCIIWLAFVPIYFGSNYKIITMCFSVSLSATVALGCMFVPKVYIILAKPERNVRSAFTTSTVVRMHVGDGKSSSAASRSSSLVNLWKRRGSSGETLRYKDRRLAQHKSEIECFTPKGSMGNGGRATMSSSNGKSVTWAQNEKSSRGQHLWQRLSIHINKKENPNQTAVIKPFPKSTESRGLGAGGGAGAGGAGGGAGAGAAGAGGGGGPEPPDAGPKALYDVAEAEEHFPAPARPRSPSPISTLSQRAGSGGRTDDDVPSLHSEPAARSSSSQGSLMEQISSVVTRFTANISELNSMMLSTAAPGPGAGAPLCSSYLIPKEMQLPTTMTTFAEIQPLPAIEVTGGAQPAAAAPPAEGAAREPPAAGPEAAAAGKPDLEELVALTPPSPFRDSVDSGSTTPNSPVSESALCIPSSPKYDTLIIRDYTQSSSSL
Counter-ions that a name gives are not always drawn.
METRIC_NAME: IC50 (nM)

CC(C)(C)Nc1c(-c2ccc(C#Cc3ccccn3)cc2)nc2cnccn12 [Example 116] :: 76
Cc1cc(-c2nc3cnccn3c2NC(C)(C)C)sc1C#Cc1ccccn1 [Example 164, hydrochloride] :: 54

[I] CC(C)(C)Nc1c(-c2ccc(C#Cc3ncccc3F)s2)nc2cnccn12 [Example 159, hydrochloride]
[II] CC(C)(C)Nc1c(-c2ccc(C#Cc3cccc(C#N)c3)s2)nc2cnccn12 [Example 140, hydrochloride]
When I and II are compared, which has the higher number for IC50? Let me know the label of the one you choose.
II

====

Lab note: IC50 readings collected with mGluR5 receptor (Sus scrofa) for the following compounds.
Structures can show the parent of a compound that is named as a salt.
METRIC_NAME: IC50 (nM)

Would you please look over these solved cases?
Cc1ccc(C#Cc2ccc(-c3nc4ccccn4c3NC(C)(C)C)s2)nc1 [Example 339, hydrochloride] :: 320
CC(C)(C)Nc1c(-c2ccc(C#Cc3ccc(F)cc3)s2)nc2cnccn12 [Example 100, hydrochloride] :: 340
CCCNc1c(-c2ccc(C#Cc3ccccc3)s2)nc2cnccn12 [Example 69] :: 2930
Cc1cccc(C#Cc2ccc(-c3nc4cnccn4c3NC(C)(C)C)s2)n1 [Example 158, hydrochloride] :: 33
Cn1cncc1C#Cc1ccc(-c2nc3ccccn3c2NC(C)(C)C)s1 [Example 337, hydrochloride] :: 6260

[a] Cc1ccc(C#Cc2ccc(-c3nc4cnccn4c3NC(C)(C)C)s2)nc1 [Example 131, hydrochloride]
[b] CC(C)(C)Nc1c(-c2ccc(C#Cc3cccc(C(F)(F)F)c3)s2)nc2cnccn12 [Example 180, hydrochloride]
# query: argmin of IC50 over a and b Let me know the label of the one you choose.
a

[I] CC(C)(C)Nc1c(-c2ccc(C#Cc3cnccn3)s2)nc2cnccn12 [Example 107]
[II] CC(C)(C)Nc1c(-c2ccc(C#Cc3c[nH]cn3)s2)nc2cnccn12 [Example 185, hydrochloride]
When I and II are compared, which has the higher number for IC50? Let me know the label of the one you choose.
II

[1] CC(C)(C)Nc1c(-c2ccc(C#Cc3cccc(N)c3)s2)nc2cnccn12 [Example 123, hydrochloride]
[2] CC(Nc1c(-c2ccc(C#Cc3ccccc3)s2)nc2cnccn12)c1ccccc1 (centres unmarked) [Example 31]
[3] CC(C)(C)Nc1c(-c2ccc(C#Cc3ccccc3F)s2)nc2cnccn12 [Example 105, hydrochloride]
Put these in order: smallest IC50 first, largest last. Quick reminder: the answer is the labels in the order asked.
1, 3, 2

[a] CC(C)(C)Nc1c(-c2ccc(C#Cc3cscn3)s2)nc2cnccn12 [Example 152, hydrochloride]
[b] Cc1cc(C#Cc2ccccc2)sc1-c1nc2cnccn2c1NC(C)(C)C [Example 182, hydrochloride]
# query: argmin of IC50 over a and b Let me know the label of the one you choose.
a
(a: 23 nM, b: 8850 nM)

====

Molecular target: mGluR5 receptor (Sus scrofa)
Test: Affinity for the mGluR5 receptor: inhibition of 3[H]-MPEP binding in pig brain homogenate
Settings: 10 μM compound, 5 nM 3[H]-MPEP, read-out: mGluR5 receptor inhibition of ^3[H]-MPEP binding [10 μM] in % at a concentration of the example compounds of 10 μM
METRIC_NAME: inhibition at 10 µM (%)

Cc1cc(Br)c2nc(-c3ccc(C#Cc4ccccn4)o3)c(NC3CCCCC3)n2c1 [Example 215] :: 51
Cc1cccc(C#Cc2cccc(-c3nc4cnccn4c3NC3CCCCC3)c2)n1 [Example 251] :: 80
CCCC(C)(C)Nc1c(-c2ccc(C#Cc3ccccc3)s2)nc2cnccn12 [Example 205] :: 92
Clc1ccc2nc(-c3ccc(C#Cc4ccccn4)o3)c(NC3CCCCC3)n2c1 [Example 317] :: 58
Cc1cc(Br)c2nc(-c3ccc(C#Cc4ccccn4)cc3)c(NC3CCCC3)n2c1 [Example 250] :: 69
C(#Cc1csc(-c2nc3cc(-c4ccccc4)ccn3c2NCCc2ccccc2)c1)c1ccccc1 [Example 229] :: 30

[1] CC(C)(C)CC(C)(C)Nc1c(-c2ccc(C#Cc3ccccn3)s2)nc2ncccn12 [Example 253]
[2] C(#Cc1ccc(-c2nc3cnccn3c2NC2CCCCC2)s1)c1ccccc1 [Example 87]
# query: argmin of inhibition at 10 µM over 1 and 2 Let me know the label of the one you choose.
2
(2: 35%, 1: 73%)

[a] CCCCNc1c(-c2cc(C#Cc3ccccc3)cs2)nc2cnccn12 [Example 57]
[b] Cc1cc(Br)cn2c(NCCc3cccs3)c(-c3cc(C#Cc4ccccc4)cs3)nc12 [Example 234]
When a and b are compared, which has the higher number for inhibition at 10 µM? Let me know the label of the one you choose.
a
(a: 94%, b: 64%)

Data provenance is patent US7420056B2.
